Provenance of the data: patent US11230524B2

# TGT: MEF2D/HDAC4 protein-protein interactions (Homo sapiens (Human), UniProt Q14814)
# Sequence (Q14814 whole entry, species assumed): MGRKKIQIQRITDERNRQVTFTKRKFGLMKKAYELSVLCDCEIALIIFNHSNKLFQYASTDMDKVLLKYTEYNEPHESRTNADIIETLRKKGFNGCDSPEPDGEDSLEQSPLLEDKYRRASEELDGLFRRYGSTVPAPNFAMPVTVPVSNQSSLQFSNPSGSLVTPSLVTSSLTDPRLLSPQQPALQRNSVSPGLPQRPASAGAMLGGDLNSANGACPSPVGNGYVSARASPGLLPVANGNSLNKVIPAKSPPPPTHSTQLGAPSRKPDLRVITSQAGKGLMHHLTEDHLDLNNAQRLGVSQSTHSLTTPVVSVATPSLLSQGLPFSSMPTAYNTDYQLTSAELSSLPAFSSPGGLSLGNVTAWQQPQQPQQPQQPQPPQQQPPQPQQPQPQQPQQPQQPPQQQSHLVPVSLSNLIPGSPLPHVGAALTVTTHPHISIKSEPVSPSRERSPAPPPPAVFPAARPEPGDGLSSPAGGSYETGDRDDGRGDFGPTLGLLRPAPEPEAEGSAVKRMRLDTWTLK
# ASSAY_DETAILS: Mammalian two-hybrid assay, inhibition of MEF2D and HDAC4 protein interactions (luciferase reporter in HeLa cells)
# TEST_PARAMETERS: HeLa cells co-transfected with GAL4-MEF2D, HDAC4-VP16 and Gal4Luc; overnight treatment; luciferase normalized to Renilla
Lab note - cut at 0.8 µM for IC50: condition met if strictly below, condition not met if not.

• CN(C)c1ccc(/C=C2C=C(/C=C/C(=O)NO)CCC/2)cc1 [ST30] = condition not met
• Cc1coc(NCc2cccc(/C=C/C(=O)Nc3ccccc3N)c2)n1 [ST67] = condition not met
• Cc1nnc(NCc2cccc(/C=C/C(=O)NO)c2)o1 [ST76] = condition not met
• CCOC(=O)NC(CCCCC(=O)Nc1cccc(Br)c1)C(=O)Nc1ccccc1N (stereo not drawn) [ST86] = condition not met
• Nc1ccccc1NC(=O)/C=C/c1cccc(C(=O)Nc2nc(-c3ccncc3)cs2)c1 [ST57] = condition not met
• Nc1ccccc1NC(=O)/C=C/c1cccc(CNc2ccc3ncccc3c2)c1 [ST55] = condition not met

*Q* Determine whether this compound shows IC50 lower than 0.8 µM (ties excluded): CC(C)OC(=O)N[C@@H](CCCCC(=O)Nc1ccccc1N)C(=O)Nc1cccc(Br)c1 [ST97]
*A* condition met

*Q* Determine whether this compound shows IC50 lower than 0.8 µM (ties excluded): O=C(/C=C/c1cccc(CNc2nc(C(F)(F)F)cs2)c1)NO [ST75]
*A* condition met

*Q* Determine whether this compound shows IC50 lower than 0.8 µM (ties excluded): CCC(=O)NC(CCCCC(=O)Nc1ccccc1N)C(=O)Nc1cccc(Br)c1 (stereo not drawn) [ST89]
*A* condition met

====

# TGT: MEF2D/HDAC4 protein-protein interactions (Homo sapiens (Human))
# ASSAY_DETAILS: Mammalian two-hybrid assay, inhibition of MEF2D and HDAC4 protein interactions (luciferase reporter in HeLa cells)
# TEST_PARAMETERS: HeLa cells co-transfected with GAL4-MEF2D, HDAC4-VP16 and Gal4Luc; overnight treatment; luciferase normalized to Renilla
OUTCOME_MEASURE: pIC50
Keep it numeric: pIC50 is minus log10 of the concentration in mol/L.

Look over these answered cases.
• COC(=O)NC(CCCCC(=O)Nc1ccccc1N)C(=O)Nc1nc(-c2ccncc2)cs1 (stereo not shown) = 6.24
• Nc1ccccc1NC(=O)/C=C/c1cccc(CNc2nc(C(F)(F)F)cs2)c1 = 5.52
• CCOC(=O)NC(CCCCC(=O)Nc1ccccc1N)C(=O)Nc1ccccn1 (stereo not shown) = 5.43
• Cc1nnc(NCc2cccc(/C=C/C(=O)Nc3ccccc3N)c2)s1 = 5.30
• CCOC(=O)N[C@@H](CCCCC(=O)Nc1ccccc1N)C(=O)Nc1cccc(Br)c1 = 6.33
• Nc1ccccc1NC(=O)/C=C/c1cccc(CNc2ccccc2)c1 = 5.03

*Q* Please give the measured pIC50 for this compound: Nc1ccccc1NC(=O)/C=C/c1cccc(CNc2cccc(N3CCCC3)c2)c1
*A* 5.60

*Q* Please give the measured pIC50 for this compound: CCOC(=O)NC(CCCCC(=O)Nc1ccccc1N)C(=O)Nc1cccc(C(C)(F)F)c1 (stereo not shown)
*A* 6.07

*Q* Please give the measured pIC50 for this compound: Nc1ccccc1NC(=O)/C=C/c1cccc(NC(=O)OCc2cccnc2)c1
*A* 5.68

*Q* Please give the measured pIC50 for this compound: CCOC(=O)NC(CCCCC(=O)Nc1ccccc1N)C(=O)Nc1nc(-c2ccncc2)cs1 (stereo not shown)
*A* 6.27

*Q* Please give the measured pIC50 for this compound: CCOC(=O)NC(CCCCC(=O)Nc1ccccc1N)C(=O)Nc1ccncc1 (stereo not shown)
*A* 5.61
